Target of assay: CRM1(E571K) (Homo sapiens, UniProt O14980, E571K)
Sequence (O14980 whole entry E571K, other chains not shown): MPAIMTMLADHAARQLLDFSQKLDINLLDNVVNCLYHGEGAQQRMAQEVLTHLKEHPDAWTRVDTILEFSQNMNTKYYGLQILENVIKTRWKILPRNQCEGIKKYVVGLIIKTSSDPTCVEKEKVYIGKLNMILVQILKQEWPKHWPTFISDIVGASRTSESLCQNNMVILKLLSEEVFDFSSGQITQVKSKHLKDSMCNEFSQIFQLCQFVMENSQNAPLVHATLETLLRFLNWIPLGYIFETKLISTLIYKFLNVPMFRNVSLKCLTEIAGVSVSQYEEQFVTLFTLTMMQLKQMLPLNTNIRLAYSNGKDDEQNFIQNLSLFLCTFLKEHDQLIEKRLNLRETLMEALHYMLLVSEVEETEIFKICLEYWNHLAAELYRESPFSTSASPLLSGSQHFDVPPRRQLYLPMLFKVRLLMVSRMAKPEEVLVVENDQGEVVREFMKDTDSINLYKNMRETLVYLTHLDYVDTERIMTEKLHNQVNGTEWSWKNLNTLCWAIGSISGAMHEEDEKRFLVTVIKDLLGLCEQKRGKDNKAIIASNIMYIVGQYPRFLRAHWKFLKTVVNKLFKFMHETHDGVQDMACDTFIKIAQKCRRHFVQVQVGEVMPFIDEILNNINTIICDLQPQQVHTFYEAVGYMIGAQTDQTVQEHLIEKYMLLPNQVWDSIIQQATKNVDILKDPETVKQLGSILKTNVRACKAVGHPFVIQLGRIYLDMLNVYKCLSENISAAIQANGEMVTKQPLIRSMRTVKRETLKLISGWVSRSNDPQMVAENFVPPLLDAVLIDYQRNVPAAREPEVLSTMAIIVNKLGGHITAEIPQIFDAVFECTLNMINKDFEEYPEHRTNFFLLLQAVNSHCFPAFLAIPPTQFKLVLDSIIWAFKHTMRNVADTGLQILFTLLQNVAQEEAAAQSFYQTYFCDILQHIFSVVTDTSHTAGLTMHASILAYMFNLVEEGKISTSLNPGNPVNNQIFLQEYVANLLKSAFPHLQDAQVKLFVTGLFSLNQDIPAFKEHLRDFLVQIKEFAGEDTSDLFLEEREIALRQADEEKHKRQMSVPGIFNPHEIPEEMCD
Type: binding
Condition set: ratio of Kds from differential photobleaching assays
No end group written: not given here. MBP = not defined here
In plain terms, low Kd,E571K/Kd,WT, meaning strictly below 0.9, gives criterion met, and everything else gives criterion not met.

Look over these answered cases.
{"Substance": "EQMVKELQEIRLEPQ [Iκβα^NES]", "Target of assay": "CRM1(E571K) (Homo sapiens, UniProt O14980, E571K)", "Assigned category": "criterion not met"}
{"Substance": "REELWKKLEELKLKK [PP2A B56α^NES]", "Target of assay": "CRM1(E571K) (Homo sapiens, UniProt O14980, E571K)", "Assigned category": "criterion not met"}
{"Substance": "TNLEALQKKLEELELDEQ [Mek1^NES]", "Target of assay": "CRM1(E571K) (Homo sapiens, UniProt O14980, E571K)", "Assigned category": "criterion met"}
{"Substance": "RSFEMTEFNQALEEIKG [hRio2^NES]", "Target of assay": "CRM1(E571K) (Homo sapiens, UniProt O14980, E571K)", "Assigned category": "criterion met"}
{"Substance": "Paxillin^NES(K277A) ({MBP}-RELDELMASLSDFAFMA; reading uncertain)", "Target of assay": "CRM1(E571K) (Homo sapiens, UniProt O14980, E571K)", "Assigned category": "criterion not met"}

Incoming: Item RTFDMHSLESSIDIMR [Cpeb4^NES] : Kd,E571K/Kd,WT beneath 0.9, strictly?
Outgoing: criterion not met

Incoming: Is 0.9 strictly greater than the substance's reported Kd,E571K/Kd,WT? substance: MEELSQALASSFSVSQDLNS [Snupn1^NES]
Outgoing: criterion not met

Incoming: Kd,E571K/Kd,WT under 0.9? Item: NFEILMKLKESLELMELVP [P73^NES]
Outgoing: criterion met

Incoming: Is it true that Kd,E571K/Kd,WT reported for SSLQELVQQFEALPGDLV [X11L2^NES] is less than 0.9?
Outgoing: criterion met
